target: human β-Secretase (soluble part, AA1-AA460; sBACE-Fc) (Homo sapiens); construct: The soluble part of the human β-Secretase (AA1-AA460) was cloned into the ASP2-Fc10-1-IRES-GFP-neoK mammalian expression vector; made in house; assay: TR-FRET assay; format: biochemical; details: substrate (Europium)CEVNLDAEFK(Qsy7) 100 nM, pH 4.5, 15 min at RT; read-out: IC50 (nM) in TR-FRET assay
Sequence (P56817 22-460): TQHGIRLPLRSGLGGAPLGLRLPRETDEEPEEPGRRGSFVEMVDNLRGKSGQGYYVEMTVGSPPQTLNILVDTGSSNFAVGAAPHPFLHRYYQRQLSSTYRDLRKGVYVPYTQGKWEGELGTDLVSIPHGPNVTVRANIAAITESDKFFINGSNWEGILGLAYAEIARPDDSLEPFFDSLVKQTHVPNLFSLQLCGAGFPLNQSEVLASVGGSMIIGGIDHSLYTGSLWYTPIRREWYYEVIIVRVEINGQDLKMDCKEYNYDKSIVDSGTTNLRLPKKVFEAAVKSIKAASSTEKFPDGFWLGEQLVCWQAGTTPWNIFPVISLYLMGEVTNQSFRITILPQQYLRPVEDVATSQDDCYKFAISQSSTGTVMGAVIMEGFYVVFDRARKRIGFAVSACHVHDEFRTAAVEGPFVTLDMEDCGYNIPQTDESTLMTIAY
Where a name gives a salt, the structure may show the parent alone.
Measured Metric: log10 IC50 (log10 of the value in nM)
// do not treat as linear: log10 of IC50, unit nM

IN: Param item = CN1C(=O)C(c2ccc(OS(=O)(=O)C(F)(F)F)cc2)(c2ccc(F)c(-c3cncc(F)c3)c2)N=C1N (stereo not drawn) [Example 145] ; retrieve measured log10 IC50.
OUT: 2.18

IN: One more compound: CN1C(=O)C(c2cccc(OS(=O)(=O)c3c(F)cccc3F)c2)(c2ccc(F)c(Br)c2)N=C1N (stereo not drawn) [Example 225]
OUT: 2.80

IN: One more compound: CN1C(=O)C(c2cccc(-c3cc(Cl)cc(OS(C)(=O)=O)c3)c2)(c2ccnc(Cl)c2)N=C1N (stereo not drawn) [Example 311, methanesulfonate hydrochloride]
OUT: 1.38

IN: One more compound: CN1C(=O)C(c2ccc(OS(=O)(=O)c3cn(C)cn3)cc2)(c2ccc(F)c(-c3cccnc3)c2)N=C1N (stereo not drawn) [Example 287]
OUT: 3.01

IN: One more compound: CN1C(=O)C(c2ccc(OS(=O)(=O)c3ccccc3)cc2)(c2ccc(F)c(-c3cncnc3)c2)N=C1N (stereo not drawn) [Example 185, benzenesulfonate hydrochloride]
OUT: 1.28

IN: One more compound: COc1cccc(-c2ccnc(C3(c4ccc(OS(=O)(=O)C(F)(F)F)cc4)N=C(N)N(C)C3=O)c2)c1 (stereo not drawn) [Example 298]
OUT: 2.94
